# target-system: MSI2 full-length (UniProt Q96DH6 1-328)
# Sequence (Q96DH6 whole entry): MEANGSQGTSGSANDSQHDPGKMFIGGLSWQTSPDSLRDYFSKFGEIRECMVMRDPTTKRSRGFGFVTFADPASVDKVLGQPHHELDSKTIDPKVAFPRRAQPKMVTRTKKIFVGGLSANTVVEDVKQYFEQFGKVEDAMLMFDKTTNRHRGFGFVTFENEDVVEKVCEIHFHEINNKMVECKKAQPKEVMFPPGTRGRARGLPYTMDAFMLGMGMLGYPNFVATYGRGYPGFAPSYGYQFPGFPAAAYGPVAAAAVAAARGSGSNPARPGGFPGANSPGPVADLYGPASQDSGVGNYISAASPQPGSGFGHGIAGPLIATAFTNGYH
# measurement-description: fluorescence polarization; FP: 5 nM RNA, 20 mM Hepes (pH not given), 5 mM DTT, 137.5 mM NaCl, 0.01% Triton X-100, 10 ng/ul BSA, 2 U/ml SUPERase-In; 15 min at 4 C, read at 25 C; positional
property-name: Kd (nM)
Answers are plain numbers, in nM.

Give Kd for the following binder: UAGUUUAGUUUAGUU (ssRNA) [tri-UAG FP RNA]
2
